biological target: T1, GST-human NOGO-A56 (human); experiment: SPR (Biacore), GST-human NOGO-A56 amine-coupled to CM5, antibody flowed over, 37 C
T1 construct: Expressed in E. coli BL21 from pGEX-6P1 and purified on glutathione-sepharose; the GST tag is part of the protein in the assays; also called GST-Nogo-A 5+6; GST Nogo-A 5 + 6
T1 sequence (chain, as listed by the source limits assumed): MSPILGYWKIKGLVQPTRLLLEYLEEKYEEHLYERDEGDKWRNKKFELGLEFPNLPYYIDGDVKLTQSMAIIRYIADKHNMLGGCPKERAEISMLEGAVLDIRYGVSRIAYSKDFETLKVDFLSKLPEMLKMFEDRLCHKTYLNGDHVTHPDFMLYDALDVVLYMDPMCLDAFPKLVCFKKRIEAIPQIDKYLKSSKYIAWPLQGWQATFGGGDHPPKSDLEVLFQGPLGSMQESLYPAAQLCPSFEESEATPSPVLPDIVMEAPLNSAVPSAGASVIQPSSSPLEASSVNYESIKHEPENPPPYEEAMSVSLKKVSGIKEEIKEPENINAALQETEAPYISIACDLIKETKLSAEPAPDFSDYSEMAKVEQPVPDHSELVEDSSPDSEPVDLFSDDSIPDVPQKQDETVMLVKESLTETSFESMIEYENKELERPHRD
Measured Quantity: pKd
pKd (log units): -log10 of the concentration in mol/L.

Would you please look over these solved cases?
Binder	pKd
H28L13 (antibody, human IgG1, kappa, V domains shown, IgG1 (L235A, G237A) / kappa; CAMPATH-1H signal (1-19) left out; also called H28FL L13FL) VH: QVQLVQSGAEVKKPGASVKVSCKASGYTFTSYWMHWVRQAPGQGLEWIGNINPSNGGTNYNEKFKSKATMTRDTSTSTAYMELSSLRSEDTAVYYCELMQGYWGQGTLVTVSS VL: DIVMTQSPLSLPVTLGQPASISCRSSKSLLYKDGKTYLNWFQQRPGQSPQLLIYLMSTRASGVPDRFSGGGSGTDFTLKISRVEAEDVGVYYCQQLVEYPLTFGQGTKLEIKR	8.99
H16L16 (antibody, human IgG1, kappa, V domains shown, IgG1 (L235A, G237A) / kappa; CAMPATH-1H signal (1-19) left out) VH: QVQLVQSGAEVKKPGASVKVSCKASGYTFTSYWMHWVKQRPGQGLEWIGNINPSNGGTNYNEKFKSKATLTVDKSTSTAYMELSSLRSEDTAVYYCELGQGYWGQGTLVTVSS VL: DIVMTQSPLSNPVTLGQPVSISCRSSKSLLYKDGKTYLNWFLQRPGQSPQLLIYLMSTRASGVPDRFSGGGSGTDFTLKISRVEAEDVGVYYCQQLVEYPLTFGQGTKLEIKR	8.94

Alright, here's another binder for you.
Prompt: Which measured pKd value corresponds to H27L16 (antibody, human IgG1, kappa, V domains shown, IgG1 (L235A, G237A) / kappa; CAMPATH-1H signal (1-19) left out; also called H27FL L16FL) VH: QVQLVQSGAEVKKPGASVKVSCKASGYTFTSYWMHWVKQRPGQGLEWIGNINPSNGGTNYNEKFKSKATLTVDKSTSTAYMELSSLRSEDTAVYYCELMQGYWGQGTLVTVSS VL: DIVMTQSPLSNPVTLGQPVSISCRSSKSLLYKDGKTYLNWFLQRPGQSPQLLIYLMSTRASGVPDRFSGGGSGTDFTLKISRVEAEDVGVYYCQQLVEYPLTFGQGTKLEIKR ?
Completion: 9.37
